# System: mouse hippocampal neuronal cell line HT22
# assay-protocol: Neurotoxicity and excitotoxicity assay, HT22 cells + glutamate, erastin or RSL3, MTS cell viability
# Type: cell-based
# setup-conditions: Mus musculus, HT-22, 24 h, read-out: EC50 HT22 RSL3
pEC50: −log10 of the molar value.

structure-smiles-string | pEC50
Oc1ccc(-c2cc3ccccc3[nH]2)cc1 | 5.49
c1ccc(COc2ccc(-c3cc4ccccc4[nH]3)cc2)cc1 | < 4.82
NCC(=O)Oc1ccc(-c2cc3cccnc3[nH]2)cc1 | < 4.30

---

# Tested on: mouse hippocampal neuronal cell line HT22
# assay-protocol: Neurotoxicity and excitotoxicity assay, HT22 cells + glutamate, erastin or RSL3, MTS cell viability
# Format: cell-based
# setup-conditions: Mus musculus, HT-22; HT22 cells, 0.5 μM RSL3, 24 h, MTS; read-out: EC50 HT22 RSL3
Measured EC50 by item

compound | EC50
CCOc1ccc(-c2cc3cccn(Cc4ccc(OC)cc4)c-3n2)cc1 [Compound 27] | 9930 nM
CCOc1ccc(-c2cc3ccncc3n2O)cc1 [Compound 5] | 2790 nM
CCOc1ccc(-c2cc3c(NCc4ccccc4)ccnc3[nH]2)cc1 [Compound 12] | 940 nM
CCOc1ccc(-c2cc3ccc(N)nc3[nH]2)cc1 [Compound 36] | 270 nM

---

# Test system: mouse hippocampal neuronal cell line HT22
# assay-protocol: Neurotoxicity and excitotoxicity assay, HT22 cells + glutamate, erastin or RSL3, MTS cell viability
# Assay type: cell-based
# setup-conditions: Mus musculus, HT-22, 24 h, read-out: EC50 HT22 Glutamate
Measured EC50 by item
property-label: EC50

structure-smiles-string | target | property-label | reported-measurement
Oc1ccc(-c2cc3ccccc3[nH]2)cc1 | mouse hippocampal neuronal cell line HT22 | EC50 | 2.55 µM
CCOc1ccc(-c2cc3cccn(C(=O)N(C(C)C)C(C)C)c-3n2)cc1 | mouse hippocampal neuronal cell line HT22 | EC50 | > 50 µM
NCC(=O)Oc1ccc(-c2cc3cccnc3[nH]2)cc1 | mouse hippocampal neuronal cell line HT22 | EC50 | > 25 µM
COc1ccc(-c2cc3ccccc3[nH]2)cc1 | mouse hippocampal neuronal cell line HT22 | EC50 | 2.66 µM

---

# Tested on: mouse hippocampal neuronal cell line HT22
# assay-protocol: Neurotoxicity and excitotoxicity assay, HT22 cells + glutamate, erastin or RSL3, MTS cell viability
# Assay type: cell-based
# setup-conditions: Mus musculus, HT-22, 24 h, read-out: EC50 HT22 Erastin
Measured EC50 by item

molecule | unit-spec | relation-qualifier | EC50
Oc1ccc(-c2cc3cc(Br)ccc3[nH]2)cc1 [Compound 30, 4-(5-bromo-TH-indol-2-yl)phenol] | µM | = | 7.5
CCOc1ccc(-c2cc3ccncc3n2OC(=O)N(CC)CC)cc1 [Compound 34] | µM | > | 50
COc1ccc(-c2cc3ccccc3[nH]2)cc1 [Compound 2, 2-(4-methoxyphenyl)-1H-indole] | µM | = | 7.92

---

# Tested on: mouse hippocampal neuronal cell line HT22
# assay-protocol: Neurotoxicity and excitotoxicity assay, HT22 cells + glutamate, erastin or RSL3, MTS cell viability
# Assay type: cell-based
# setup-conditions: Mus musculus, HT-22, 24 h, read-out: EC50 HT22 Erastin
# Description: The excitotoxicity model used was the mouse hippocampal neuronal HT22 cells treated with glutamate [Dixon et al., Cell, 2012, 149(5), 1060-1072]. […] In FIGS. 1, 2A and 2B, an inhibitor was added to HT22 (FIG. 1: compound 6) or SH-SY5Y (FIG. 2A: compound 6; FIG. 2B: compound 25) cells in the presence or not of cell death inducers (erastin, glutamate or RSL3). […] EC50 values for compounds 1-28 were calculated from dose-response curves using Graphpad Prism software.
pEC50: −log10 of the molar value.
Measured pEC50 by item

structure-smiles-string | pEC50
c1ccc(COc2ccc(-c3cc4ccccc4[nH]3)cc2)cc1 | < 4.60
CCOc1ccc(-c2cc3cccn(C(=O)N(C(C)C)C(C)C)c-3n2)cc1 | < 4.30
Oc1ccc(-c2cc3ccccc3[nH]2)cc1 | 5.54
NCC(=O)Oc1ccc(-c2cc3cccnc3[nH]2)cc1 | < 4.60

---

# Tested on: mouse hippocampal neuronal cell line HT22
# assay-protocol: Neurotoxicity and excitotoxicity assay, HT22 cells + glutamate, erastin or RSL3, MTS cell viability
# Assay type: cell-based
# setup-conditions: Mus musculus, HT-22; HT22 cells, 0.5 μM RSL3, 24 h, MTS; read-out: EC50 HT22 RSL3
Binary call on EC50 with cut-off 10 µM: strictly below means label 1, and equality or higher means label 0.

compound | class-name
CCOc1ccc(-c2cc3c(Nc4ccccc4)ccnc3[nH]2)cc1 [Compound 14] | label 1
CCOc1ccc(-c2cc3ccc(OC(C)=O)nc3n2C(C)=O)cc1 [Compound 22] | label 1
CCOc1ccc(-c2cc3c(N4CCN(C)CC4)ccnc3[nH]2)cc1 [Compound 15] | label 1
CCOc1ccc(-c2cc3c(-c4ccc(C(=O)c5ccccc5)cc4)ccn(Cc4ccccc4)c-3n2)cc1 [Compound 28] | label 0
CCOc1ccc(-c2cc3ccc(-c4cn[nH]c4)nc3[nH]2)cc1 [Compound 41] | label 1
CCOc1ccc(-c2cc3ccc(Cc4ccncn4)nc3[nH]2)cc1 [Compound 42] | label 1
CCOc1ccc(-c2cc3cccn(C(=O)OCc4ccccc4)c-3n2)cc1 [Compound 25] | label 0
CCOc1ccc(-c2cc3c(Nc4ccc(C(=O)c5ccccc5)cc4)ccnc3[nH]2)cc1 [Compound 11] | label 1
CCOc1ccc(-c2cc3ccc(OC(C)=O)nc3[nH]2)cc1 [Compound 38] | label 1
Oc1ccc(-c2cc3cccnc3[nH]2)cc1 [Compound 7, 4-(1H-pyrrolo[2,3-b]pyridin-2-yl)phenol] | label 0
CCOc1ccc(-c2cc3cccnc3n2-c2ccc([N+](=O)[O-])cn2)cc1 [Compound 19] | label 0
CC(CO)(CO)C(=O)Oc1ccc(-c2cc3cccnc3[nH]2)cc1 [Compound 10] | label 0
Oc1ccc(-c2cc3ccc(-c4ccc(O)nc4)nc3[nH]2)cc1 [Compound 40] | label 1
CCOc1ccc(-c2cc3ccncc3[nH]2)cc1 [Compound 4] | label 0
Cn1c(-c2ccc(O)cc2)cc2ccccc21 [Compound 33, 4-(1-methyl-1H-indol-2-yl)phenol] | label 0
CCOc1ccc(-c2cc3c(N4CCCCC4)ccnc3[nH]2)cc1 [Compound 13] | label 0
CCOc1ccc(-c2cc3c(N(C)c4ccccc4)ccnc3[nH]2)cc1 [Compound 44] | label 1

---

Measured EC50 by item
# Test system: mouse hippocampal neuronal cell line HT22
# assay-protocol: Neurotoxicity and excitotoxicity assay, HT22 cells + glutamate, erastin or RSL3, MTS cell viability
# Type: cell-based
# setup-conditions: Mus musculus, HT-22, 24 h, read-out: EC50 HT22 RSL3
property-label: EC50 (µM)

compound | reported-measurement
Oc1ccc(-c2cc3cc(Br)ccc3[nH]2)cc1 [Compound 30, 4-(5-bromo-TH-indol-2-yl)phenol] | 7.5
CCOc1ccc(-c2cc3cccn(C(=O)N(C(C)C)C(C)C)c-3n2)cc1 [Compound 24] | 21
CCOc1ccc(-c2cc3ccncc3n2OC(=O)N(CC)CC)cc1 [Compound 34] | 16.8
COc1ccc(-c2cc3ccccc3[nH]2)cc1 [Compound 2, 2-(4-methoxyphenyl)-1H-indole] | 46

---

# System: human neuroblastoma cell line SH-SY5Y
# assay-protocol: Neurotoxicity assay, SH-SY5Y cells + erastin or RSL3, MTS cell viability
# Assay type: cell-based
# setup-conditions: Homo sapiens; SH-SY5Y cells, 5 μM RSL3, 24 h, MTS; read-out: EC50 SH-SY5Y RSL3

compound | EC50 (nM)
CCOc1ccc(-c2cc3cccnc3n2CCN2CCOCC2)cc1 [Compound 20] | 27400
Oc1ccc(-c2cc3ccc(Cl)nc3[nH]2)cc1 [Compound 37] | 1220
CCOc1ccc(-c2cc3ccc(Cc4ccncn4)nc3[nH]2)cc1 [Compound 42] | 1840
CCOc1ccc(-c2cc3ccc(N)nc3[nH]2)cc1 [Compound 36] | 70
CCOc1ccc(-c2cc3c(Nc4ccccc4)ccnc3n2S(=O)(=O)c2ccccc2)cc1 [Compound 43] | 1350
CCOc1ccc(-c2cc3cccn(C(=O)OCc4ccccc4)c-3n2)cc1 [Compound 25] | 5250
COc1ccc(-c2ccc3cc(-c4ccc(O)cc4)[nH]c3n2)cn1 [Compound 39] | 1470
CCOc1ccc(-c2cc3ccc(-c4cn[nH]c4)nc3[nH]2)cc1 [Compound 41] | 2210
CCOc1ccc(-c2cc3c(-c4ccc(C(=O)c5ccccc5)cc4)ccn(Cc4ccccc4)c-3n2)cc1 [Compound 28] | 15800
Oc1ccc(-c2cc3ccc(-c4ccc(O)nc4)nc3[nH]2)cc1 [Compound 40] | 950
Oc1ccc(-c2cc3cccnc3[nH]2)cc1 [Compound 7, 4-(1H-pyrrolo[2,3-b]pyridin-2-yl)phenol] | 1360
CCOc1ccc(-c2cc3ccc(C#N)nc3[nH]2)cc1 [Compound 35] | 1030
CCOc1ccc(-c2cc3ccncc3[nH]2)cc1 [Compound 4] | 5420
CCOc1ccc(-c2cc3c(N(C)c4ccccc4)ccnc3[nH]2)cc1 [Compound 44] | 2660
CCOc1ccc(-c2cc3ccc(OC(C)=O)nc3n2C(C)=O)cc1 [Compound 22] | 790
CC(C)(C)OC(=O)n1c(-c2ccc(O)cc2)cc2ccccc21 [Compound 29] | 1460
CCOc1ccc(-c2cc3ccc(OC(C)=O)nc3[nH]2)cc1 [Compound 38] | 200
CCOc1ccc(-c2cc3cccn(Cc4ccccc4)c-3n2)cc1 [Compound 26] | 33700
CCOc1ccc(-c2cc3ccc[n+]([O-])c3[nH]2)cc1 [Compound 23] | 2640
CCOc1ccc(-c2cc3cccnc3n2-c2ccc([N+](=O)[O-])cn2)cc1 [Compound 19] | 5600
CCOc1ccc(-c2cc3c(N4CCCCC4)ccnc3[nH]2)cc1 [Compound 13] | 9250
